Each recorded value in this set is attributed to ChEMBL document CHEMBL5032498.

# Protocol Notes: Cytotoxicity against human RD cells incubated for 3 days by neutral red uptake method
# Format: cell-based, Rhabdomyosarcoma cell
# Study Conditions: time 3 day
Assignment: determine reported CC50 at 72 h for the given compounds.
Give bare numbers, in µM.

Guide cases for CC50 at 72 h, answers given:
[
  {
    "Compound": "CC(C)n1ncc2c(C(=O)NCCN3CCCC3)cc(C3CC3)nc21",
    "Assay Value": 46.5
  },
  {
    "Compound": "CC(C)n1ncc2c(C(=O)NCCN(C)C)cc(C(C)(C)C)nc21",
    "Assay Value": 31.4
  },
  {
    "Compound": "CCCn1ncc2c(C(=O)NCCN(C)C)cc(C3CC3)nc21",
    "Assay Value": 57.7
  }
]

Batch lookup, CC50 at 72 h per entry.
1. Cc1nn(C(C)(C)C)c2nc(C3CC3)cc(C(=O)NCCN(C)C)c12
2. CC(CN)NC(=O)c1cc(C(C)C)nc2c1cnn2C(C)C (configuration not stated)
3. CNCCCNC(=O)c1cc(C2CC2)nc2c1cnn2C(C)C
4. CC(CN(C)C)NC(=O)c1cc(C2CC2)nc2c1cnn2C(C)C (configuration not stated)
5. CNCCNC(=O)c1cc(C2CC2)nc2c1cnn2C(C)C

[45.2, 118, 183, 72.6, 236]
